Test system: P. aeruginosa PAO1
Parameters: unit not given beside the values
Settings: in combination with Linezolid
Positions of bridges follow the written chain, without caps; N, C: chain ends. Non-standard residues stand in square brackets, D forms with d. Residues, ends and D or L forms follow the SMILES beside them. *: point of attachment. Octanoyl = CCCCCCCC(=O)*; Dab = NCC[C@H](N)C(=O)O; Butyryl = CCCC(=O)*
metric: MIC of adjuvant in combo

[[record]]
compound = "CCCCCCCC(=O)NCC[C@H](NC(=O)CCCCCCC)C(=O)N[C@H](C(=O)N[C@@H](CCN)C(=O)N[C@H]1CCNC(=O)[C@H]([C@@H](C)O)NC(=O)[C@H](CCN)NC(=O)[C@H](CCN)NC(=O)[C@H](CC(C)C)NC(=O)[C@@H](Cc2ccccc2)NC(=O)[C@H](CCN)NC1=O)[C@@H](C)O [Compound 2, Dioctanoic Acid (Di-C8) Polymyxin] (Octanoyl-[Dab](Octanoyl)T[Dab][Dab][Dab][dF]L[Dab][Dab]T; lactam 4-C)"
metric = "MIC of adjuvant in combo"
measured_value = "(4)"

[[record]]
compound = "CC(C)C[C@@H]1NC(=O)[C@@H](Cc2ccccc2)NC(=O)[C@H](CCN)NC(=O)[C@@H](NC(=O)[C@H](CCN)NC(=O)[C@@H](N)[C@@H](C)O)CCNC(=O)[C@H]([C@@H](C)O)NC(=O)[C@H](CCN)NC(=O)[C@H](CCN)NC1=O [PMBN, polymyxin B nonapeptide, reference compound] (H-T[Dab][Dab][Dab][dF]L[Dab][Dab]T; lactam 3-C (inferred))"
metric = "MIC of adjuvant in combo"
measured_value = "(4)"

[[record]]
compound = "CCCC(=O)NCC[C@H](NC(=O)CCC)C(=O)N[C@H](C(=O)N[C@@H](CCN)C(=O)N[C@H]1CCNC(=O)[C@H]([C@@H](C)O)NC(=O)[C@H](CCN)NC(=O)[C@H](CCN)NC(=O)[C@H](CC(C)C)NC(=O)[C@@H](Cc2ccccc2)NC(=O)[C@H](CCN)NC1=O)[C@@H](C)O [Compound 1, Dibutyric Acid (Di-C4) Polymyxin] (Butyryl-[Dab](Butyryl)T[Dab][Dab][Dab][dF]L[Dab][Dab]T; lactam 4-C)"
metric = "MIC of adjuvant in combo"
measured_value = "(4)"


---

System: MSSE CANWARD-2008 81388
Type: cell-based, Staphylococcus epidermidis
Conditions: MSSE CANWARD-2008 81388 (methicillin-susceptible Staphylococcus epidermidis)
Positions of bridges follow the written chain, without caps; N, C: chain ends. Non-standard residues stand in square brackets, D forms with d. Residues, ends and D or L forms follow the SMILES beside them. *: point of attachment. Acetyl(1-adamantyl) = O=C(CC12CC3CC(CC(C3)C1)C2)*; Benzoyl(4-Ph) = O=C(c1ccc(-c2ccccc2)cc1)*; Lauroyl = CCCCCCCCCCCC(=O)*; Octanoyl = CCCCCCCC(=O)*; Dab = NCC[C@H](N)C(=O)O
metric: MIC (µg/mL)
One number for each entry, in µg/mL.

List MIC for every entry below, keeping the order given.
1. CC(C)C[C@@H]1NC(=O)[C@@H](Cc2ccccc2)NC(=O)[C@H](CCN)NC(=O)[C@@H](NC(=O)[C@H](CCN)NC(=O)[C@@H](NC(=O)[C@H](CCNC(=O)c2ccc(-c3ccccc3)cc2)NC(=O)c2ccc(-c3ccccc3)cc2)[C@@H](C)O)CCNC(=O)[C@H]([C@@H](C)O)NC(=O)[C@H](CCN)NC(=O)[C@H](CCN)NC1=O [Compound 5] ({Benzoyl(4-Ph)}-[Dab](Benzoyl(4-Ph))T[Dab][Dab][Dab][dF]L[Dab][Dab]T; lactam 4-C)
2. CCCCCCCCCCCC(=O)NCC[C@H](NC(=O)CCCCCCCCCCC)C(=O)N[C@H](C(=O)N[C@@H](CCN)C(=O)N[C@H]1CCNC(=O)[C@H]([C@@H](C)O)NC(=O)[C@H](CCN)NC(=O)[C@H](CCN)NC(=O)[C@H](CC(C)C)NC(=O)[C@@H](Cc2ccccc2)NC(=O)[C@H](CCN)NC1=O)[C@@H](C)O [Compound 3, Didodecanoic Acid (Di-C12) Polymyxin] (Lauroyl-[Dab](Lauroyl)T[Dab][Dab][Dab][dF]L[Dab][Dab]T; lactam 4-C)
3. CC(C)C[C@@H]1NC(=O)[C@@H](Cc2ccccc2)NC(=O)[C@H](CCN)NC(=O)[C@@H](NC(=O)[C@H](CCN)NC(=O)[C@@H](NC(=O)[C@H](CCNC(=O)CC23CC4CC(CC(C4)C2)C3)NC(=O)CC23CC4CC(CC(C4)C2)C3)[C@@H](C)O)CCNC(=O)[C@H]([C@@H](C)O)NC(=O)[C@H](CCN)NC(=O)[C@H](CCN)NC1=O [Compound 4] ({Acetyl(1-adamantyl)}-[Dab](Acetyl(1-adamantyl))T[Dab][Dab][Dab][dF]L[Dab][Dab]T; lactam 4-C)
4. CCCCCCCC(=O)NCC[C@H](NC(=O)CCCCCCC)C(=O)N[C@H](C(=O)N[C@@H](CCN)C(=O)N[C@H]1CCNC(=O)[C@H]([C@@H](C)O)NC(=O)[C@H](CCN)NC(=O)[C@H](CCN)NC(=O)[C@H](CC(C)C)NC(=O)[C@@H](Cc2ccccc2)NC(=O)[C@H](CCN)NC1=O)[C@@H](C)O [Compound 2, Dioctanoic Acid (Di-C8) Polymyxin] (Octanoyl-[Dab](Octanoyl)T[Dab][Dab][Dab][dF]L[Dab][Dab]T; lactam 4-C)

Result:
1. 8
2. 64
3. 16
4. 8

---

Test system: P. aeruginosa PAO1
Design: unit not given beside the values
Settings: in combination with Fosfomycin
Procedure: The potential of the dilipid polymyxins to serve as an adjuvant in combination with other antibiotics was evaluated against P. aeruginosa PAO1 strain (Tables 4 and 7-12). […] Fractional inhibitory concentration (FIC) index was calculated for each combination to measure potential synergism between the two agents. […] Initially, we assessed the adjuvant properties of PMBN against the panel of 21 antibiotics. […]
Positions of bridges follow the written chain, without caps; N, C: chain ends. Non-standard residues stand in square brackets, D forms with d. Residues, ends and D or L forms follow the SMILES beside them. *: point of attachment. Acetyl(1-adamantyl) = O=C(CC12CC3CC(CC(C3)C1)C2)*; Benzoyl(4-Ph) = O=C(c1ccc(-c2ccccc2)cc1)*; Octanoyl = CCCCCCCC(=O)*; Dab = NCC[C@H](N)C(=O)O
metric: MIC of adjuvant in combo

[[record]]
compound = "CC(C)C[C@@H]1NC(=O)[C@@H](Cc2ccccc2)NC(=O)[C@H](CCN)NC(=O)[C@@H](NC(=O)[C@H](CCN)NC(=O)[C@@H](NC(=O)[C@H](CCNC(=O)c2ccc(-c3ccccc3)cc2)NC(=O)c2ccc(-c3ccccc3)cc2)[C@@H](C)O)CCNC(=O)[C@H]([C@@H](C)O)NC(=O)[C@H](CCN)NC(=O)[C@H](CCN)NC1=O [Compound 5] ({Benzoyl(4-Ph)}-[Dab](Benzoyl(4-Ph))T[Dab][Dab][Dab][dF]L[Dab][Dab]T; lactam 4-C)"
measured_value = "(8)"

[[record]]
compound = "CCCCCCCC(=O)NCC[C@H](NC(=O)CCCCCCC)C(=O)N[C@H](C(=O)N[C@@H](CCN)C(=O)N[C@H]1CCNC(=O)[C@H]([C@@H](C)O)NC(=O)[C@H](CCN)NC(=O)[C@H](CCN)NC(=O)[C@H](CC(C)C)NC(=O)[C@@H](Cc2ccccc2)NC(=O)[C@H](CCN)NC1=O)[C@@H](C)O [Compound 2, Dioctanoic Acid (Di-C8) Polymyxin] (Octanoyl-[Dab](Octanoyl)T[Dab][Dab][Dab][dF]L[Dab][Dab]T; lactam 4-C)"
measured_value = "(4)"

[[record]]
compound = "CC(C)C[C@@H]1NC(=O)[C@@H](Cc2ccccc2)NC(=O)[C@H](CCN)NC(=O)[C@@H](NC(=O)[C@H](CCN)NC(=O)[C@@H](NC(=O)[C@H](CCNC(=O)CC23CC4CC(CC(C4)C2)C3)NC(=O)CC23CC4CC(CC(C4)C2)C3)[C@@H](C)O)CCNC(=O)[C@H]([C@@H](C)O)NC(=O)[C@H](CCN)NC(=O)[C@H](CCN)NC1=O [Compound 4] ({Acetyl(1-adamantyl)}-[Dab](Acetyl(1-adamantyl))T[Dab][Dab][Dab][dF]L[Dab][Dab]T; lactam 4-C)"
measured_value = "(4)"


---

Tested on: P. aeruginosa PAO1
Set-up: unit not given beside the values
Conditions: antibiotic in combination with PMBN
metric: MICDrug in combo

Worked cases, answers included:
[[record]]
compound = "CC(C)(O/N=C(\\C(=O)N[C@@H]1C(=O)N2C(C(=O)[O-])=C(C[n+]3ccccc3)CS[C@H]12)c1csc(N)n1)C(=O)O [Ceftazidime, reference compound]"
measured_value = "(0.25)"

[[record]]
compound = "C[C@@H](O)[C@H]1C(=O)N2C(C(=O)O)=C(S[C@@H]3CN[C@H](C(=O)N(C)C)C3)[C@H](C)[C@H]12 [Meropenem, reference compound]"
measured_value = "(0.125)"

[[record]]
compound = "C[C@@H](O)[C@H]1C(=O)N2C(C(=O)O)=C(S[C@@H]3CN[C@H](CNS(N)(=O)=O)C3)[C@H](C)[C@H]12 [Doripenem, reference compound]"
measured_value = "(0.25)"

[[record]]
compound = "CCN1CCN(C(=O)N[C@@H](C(=O)N[C@@H]2C(=O)N3[C@@H]2SC(C)(C)[C@@H]3C(=O)O)c2ccccc2)C(=O)C1=O [Piperacillin, reference compound]"
measured_value = "(1)"

[[record]]
compound = "COc1c(N2C[C@@H]3CCCN[C@@H]3C2)c(F)cc2c(=O)c(C(=O)O)cn(C3CC3)c12 [Moxifloxacin, reference compound]"
measured_value = "(0.125)"

[[record]]
compound = "C[C@H]1c2cccc(O)c2C(=O)C2=C(O)[C@]3(O)C(=O)C(C(N)=O)=C(O)[C@@H](N(C)C)[C@@H]3[C@@H](O)[C@@H]21 [Doxycycline, reference compound]"
measured_value = "(0.25)"

[[record]]
compound = "CN[C@H](CC(C)C)C(=O)N[C@H]1C(=O)N[C@@H](CC(N)=O)C(=O)N[C@H]2C(=O)N[C@H]3C(=O)N[C@H](C(=O)N[C@H](C(=O)O)c4cc(O)cc(O)c4-c4cc3ccc4O)[C@H](O)c3ccc(c(Cl)c3)Oc3cc2cc(c3O[C@@H]2O[C@H](CO)[C@@H](O)[C@H](O)[C@H]2O[C@H]2C[C@](C)(N)[C@H](O)[C@H](C)O2)Oc2ccc(cc2Cl)[C@H]1O [Vancomycin, reference compound]"
measured_value = "(4)"

[[record]]
compound = "NC[C@H]1O[C@H](O[C@H]2[C@H](O)[C@@H](O[C@H]3O[C@H](CO)[C@@H](O)[C@H](N)[C@H]3O)[C@H](N)C[C@@H]2N)[C@H](N)C[C@@H]1O [Tobramycin, reference compound]"
measured_value = "(1)"


List MICDrug in combo for every entry below, keeping the order given.
1. C[C@H]1[C@H](NC(=O)/C(=N\OC(C)(C)C(=O)O)c2csc(N)n2)C(=O)N1S(=O)(=O)O [Aztreonam, reference compound]
2. CO[C@@H]1[C@@H](OC(N)=O)[C@@H](O)[C@H](Oc2ccc3c(O)c(NC(=O)c4ccc(O)c(CC=C(C)C)c4)c(=O)oc3c2C)OC1(C)C [Novobiocin, reference compound]

Result:
(0.5)
(4)
